- Tested on: C. auris 8971
- EXPERIMENTAL DETAILS: Candida panel MIC, serial dilution in 96-well plates
- Type: cell-based, Candida auris
- CONDITION DESCRIPTION: Candidozyma auris, 8971; Table 4, extended panel; 24 hours, ≥50% inhibition; read-out: MIC C. auris 8971
MEASUREMENT TYPE: MIC

Check out these entries, answers already filled in.
{"MOLECULE": "Cc1ccc(Oc2ccc(NC3CCN(CC(O)(Cn4cncn4)c4ccc(F)cc4F)CC3)cc2)cc1 (stereo not shown)", "VALUE OBSERVED": "0.00195 to 0.125 µg/mL"}
{"MOLECULE": "CC(C)COc1ccc(NC2CCN(CC(O)(Cn3cncn3)c3ccc(F)cc3F)CC2)cc1 (stereo not shown)", "VALUE OBSERVED": "0.00195 to 0.00391 µg/mL"}
{"MOLECULE": "OC(CN1CCC(N2CCC(Nc3ccc(Cc4ccccc4)cc3)CC2)CC1)(Cn1cncn1)c1ccc(F)cc1F (stereo not shown)", "VALUE OBSERVED": "≤ 0.125 µg/mL"}
{"MOLECULE": "OC(CN1CCC(Nc2ccc(Cc3ccccc3)cc2)CC1)(Cn1cncn1)c1ccc(F)cc1F (stereo not shown)", "VALUE OBSERVED": "≤ 0.125 µg/mL"}
{"MOLECULE": "Cc1ccc(-c2ccc(NC3C[C@@H]4CN(CC(O)(Cn5cncn5)c5ccc(F)cc5F)C[C@@H]4C3)cc2)cc1F (stereo partly shown)", "VALUE OBSERVED": "1 to 4 µg/mL"}
{"MOLECULE": "OC(CN1CCC(Nc2ccc(OCCN3CCCC3)cc2)CC1)(Cn1cncn1)c1ccc(F)cc1F (stereo not shown)", "VALUE OBSERVED": "2 to 8 µg/mL"}
{"MOLECULE": "OC(CN1C[C@H]2CC(Nc3ccc(Cc4ccccc4)cc3)C[C@H]2C1)(Cn1cncn1)c1ccc(F)cc1F (stereo partly shown)", "VALUE OBSERVED": "≤ 0.125 µg/mL"}
{"MOLECULE": "OC(CN1CCC2(CCC(Nc3ccc(Cc4ccccc4)cc3)CC2)C1)(Cn1cncn1)c1ccc(F)cc1F (stereo not shown)", "VALUE OBSERVED": "≤ 0.125 µg/mL"}
{"MOLECULE": "COc1ccc(Oc2ccc(NC3CCN(CC(O)(Cn4cncn4)c4ccc(F)cc4F)CC3)cc2)cc1 (stereo not shown)", "VALUE OBSERVED": "0.00098 to 0.03 µg/mL"}

Which MIC value is on record for C[C@@H](c1ncncc1F)[C@](O)(Cn1cncn1)c1ccc(F)cc1F [Voriconazole, voriconazole, reference compound] ? > 32 µg/mL

###

- Tested on: Candida auris TDG2512
- EXPERIMENTAL DETAILS: Candida panel MIC, serial dilution in 96-well plates
- Type: cell-based
- CONDITION DESCRIPTION: Candidozyma auris, TDG2512; Table 4, extended panel; 24 hours, ≥50% inhibition; read-out: MIC Candida auris TDG2512
# MIC values compiled below

# annotated cases, reported MIC shown
{"COMPOUND": "OC(CN1CCC(N2CCC(Nc3ccc(Cc4ccccc4)cc3)CC2)CC1)(Cn1cncn1)c1ccc(F)cc1F (stereo not drawn) [Example 12]", "EXPERIMENTAL SYSTEM": "Candida auris TDG2512", "MEASUREMENT TYPE": "MIC", "VALUE OBSERVED": "≤ 125 ng/mL"}
{"COMPOUND": "N#Cc1ccccc1-c1ccc(NC2CCN(CC(O)(Cn3cncn3)c3ccc(F)cc3F)CC2)cc1 (stereo not drawn) [Example 5]", "EXPERIMENTAL SYSTEM": "Candida auris TDG2512", "MEASUREMENT TYPE": "MIC", "VALUE OBSERVED": "≤ 3 ng/mL"}

Query compound follows.
For N#Cc1ccc(-c2ccc(NC3CCN(CC(O)(Cn4cncn4)c4ccc(F)cc4F)CC3)cc2)cc1 (stereo not drawn) [Example 2] , what is its reported MIC? ≤ 3 ng/mL

Hey, just so you know, these numbers are from patent US20240246920A1.
